Entries and their OD 450 nm values follow.
target: HCV E1E2 antigen, isolate J6E3 (hepatitis C virus, isolate J6E3, UniProt P26660 192-383; P26660 384-750); assay: ELISA, Fab on E1E2 antigen
Sequence (P26660 192-383 limits assumed, chain 1 of 2): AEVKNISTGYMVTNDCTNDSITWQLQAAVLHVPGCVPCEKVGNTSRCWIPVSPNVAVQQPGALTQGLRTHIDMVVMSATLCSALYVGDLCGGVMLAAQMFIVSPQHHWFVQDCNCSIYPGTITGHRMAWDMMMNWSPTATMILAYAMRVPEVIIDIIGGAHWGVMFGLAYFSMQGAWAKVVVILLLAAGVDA
Sequence (P26660 384-750 limits assumed, chain 2 of 2): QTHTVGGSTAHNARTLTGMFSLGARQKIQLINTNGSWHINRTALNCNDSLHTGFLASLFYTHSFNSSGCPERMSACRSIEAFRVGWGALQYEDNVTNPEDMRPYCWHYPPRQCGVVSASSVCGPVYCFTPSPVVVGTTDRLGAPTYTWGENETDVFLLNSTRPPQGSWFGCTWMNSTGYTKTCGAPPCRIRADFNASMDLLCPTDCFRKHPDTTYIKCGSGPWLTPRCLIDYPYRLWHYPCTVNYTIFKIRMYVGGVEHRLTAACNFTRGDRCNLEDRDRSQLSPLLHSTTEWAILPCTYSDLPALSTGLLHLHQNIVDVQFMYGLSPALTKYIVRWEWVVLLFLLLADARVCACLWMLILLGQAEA
reported_property: OD 450 nm (OD 450 nm)

[[record]]
binder = "Fab Q2 (Fab, V domains shown) VH: VQLLEQSGAEVKKPGASVKVSCKASGYTFTNNGLNWVRQAPGQGLEWMGWISPYNGDTDFAHKFQGRISMTTDTSTNTAYMELRSLRSDDTAVYYCARDRNSAGGTWLFRDPPPGSTFFDSWGQGSLVTVSS VL: ELTQSPASLSLSPGGSATLACRASRGVNSNLAWYHQKPGQAPRLLIYSASTRATGIPGRFSGSGFGTEFTLTINNLQSDDFGVYYCQQYDDTPQITFGQGTRLDIKR"
reported_property = "OD 450 nm"
unit_string = "OD 450 nm"
meas_value = 0.25

[[record]]
binder = "Fab P6 (Fab, V domains shown) VH: EVQLLESGGGVVQPGKSLTVSCAASGFTFSTFTMHWVRQAPGKWLEWVAVISHDGGTEHYADSVTGRFTISRDNSKNTLHMQMNSLRLEDTAVYFCARGGPAYYLYNDVLTGYYNVVGDFWGQGTLVTVSS VL: ELIQSPGTLFLSSGERATLSCRASQSVSSSNLAWFQHKSGRAPRLLIYGASNRAPDIPDRFSGSGSGTDFTISISRLEPEDFAVYYCQRYGDSPPITFGQGTRLEIKR"
reported_property = "OD 450 nm"
unit_string = "OD 450 nm"
meas_value = 0.02

[[record]]
binder = "Fab O1 (Fab, V domains shown) VH: VQLLEQSGAEVKKAGESVRLSCKASGYRFGDYWIAWVRQLPGRAPEWMGIIYPDDSDTKYSPSFQGQVTISADKSIRTTFLDWGSLKASDTAIYYCARGCLGAKCYYPHYYYGLDVWGQGTTVIVSS VL: ELTQSPSSLSASVGDRVTITCRATQGIDNYLNWYQQKPGKPPRLLIYGASSLQSGVPSRFSGGGSGTHFTLTITNLQPEDFATYYCQQSYSTPPETFGQGTKVEIKR"
reported_property = "OD 450 nm"
unit_string = "OD 450 nm"
meas_value = 0.05

[[record]]
binder = "Fab P1a (Fab, V domains shown) VH: EVQLLESGGGVVQPGGSLRLSCAASGFTFTSFTMHWVRQAPGKGLEWVALISHDGSNKDYADSVRGRFTVSRDNSKKMVYLQMSSLRPDDAAVYYCARGGPAYYTYSDTLTGYHNVVGDYWGQGTLVTVSS VL: ELTQSPGTLSLSPGERATLSCRTSQSVSSTYLAWYQQKPGQPPRLLIYGASNRAPGIPDRFSGSGSGTDFTLTISRLEPEDFAVYYCQQYGDSPPITFGQGTRLDIKR"
reported_property = "OD 450 nm"
unit_string = "OD 450 nm"
meas_value = 0.03

[[record]]
binder = "Fab N2 (Fab, V domains shown) VH: VQLLEQSGPEVKKPGDSLRISCKMSGDSLVTTWIGWVRQKPGQGLEWMGIINPGDSSTNIYPGDSATRYGPSFQGQVTISIDKSTSTAYLQWNTVKPSDTGIYYCARHVPVPISGTFLWREREMHDFGYFDDWGQGTLVIVSS VL: ELTQSPGTLSLFPGERATLSCRASQSILGRYLAWYQQKGGRAPRLLIFGASKRATGIPDRFSGSGSGTDFTLTIGRLEPEDFAVYYCQHYGSSITFGQGTRLDIKR"
reported_property = "OD 450 nm"
unit_string = "OD 450 nm"
meas_value = 0.92

